Reference for the values: patent US11427783B2

Assay: Odor threshold of perfuming compounds in air
Details: Table 4, watery note
experimentalEndpoint: Odor Threshold (μg/l air)
Numbers only, in μg/l air.

Solved entries:
CCCCCCCCCCC=O :: 1.65E−03
CC/C=C\CC/C=C/C=O :: 1.46E−04
CC/C=C\CC/C=C/CO :: 3.22E−06
CC(C)(C)c1ccc2c(c1)OCC(=O)CO2 :: 1.53E−04
COc1ccc(CC(C)C=O)cc1 (racemic) :: 9.79E−03

Alright, here's another compound for you.
Reported Odor Threshold, compound COC(=O)c1c(C)cc(O)c(C)c1O : ____ 4.89E−06
